Source: a collection of fitness landscapes (doi:10.1038/s41467-024-54723-y)

- tested_on: TetR (class B, Tn10) (UniProt P04483)
- Sequence (P04483 whole entry): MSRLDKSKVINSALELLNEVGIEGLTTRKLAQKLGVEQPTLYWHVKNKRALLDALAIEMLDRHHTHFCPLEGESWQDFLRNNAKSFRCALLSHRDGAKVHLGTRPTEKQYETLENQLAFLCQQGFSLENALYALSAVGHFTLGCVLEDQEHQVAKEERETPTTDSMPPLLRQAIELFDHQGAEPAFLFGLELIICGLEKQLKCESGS
- experimental_protocol: TetR repression strength (sort-seq, GFP reporter) (relative to tetO2 = 1); higher = stronger repression
- conditions: E. coli
Whole data set: some 18,000 sequences, median “TetR repression strength (sort-seq, GFP reporter)” near 0.23, cut for the highest 2% near 0.68. The list comes from a sample in which the highest values are over-represented; it also holds close analogues and randomly drawn sequences.
Would you kindly list TetR repression strength for each of these sequences?
Numbers only.

sequence "TCCCTCTCAGTTCGTGAGA" , TetR repression strength observed: 0.181

sequence "TCCCCGTCAGTGATAGAGA" , TetR repression strength observed: 0.35

sequence "TCCCACTGAGTGAGAGAGA" , TetR repression strength observed: 0.473

Fill in TetR repression strength for each of the 5 sequences listed.
1. TCCCTATCAGTGATAGAGA
2. TCCCTATCAGTGACTGAGA
3. TCCCTTGTAGTCGGGGAGA
4. TCCCTATCAGTGTTAGAGA
5. TCCCCTGGAGTCGGGGAGA

1: 1; 2: 0.722; 3: 0.938; 4: 0.974; 5: 0.222

Fill in TetR repression strength for each of the 8 sequences listed.
1. TCCCGTGAAGTCGCTGAGA
2. TCCCAACGAGTAATGGAGA
3. TCCCTTCCAGTCATTGAGA
4. TCCCCTGTAGTAGGGGAGA
5. TCCCTTGGAGTCGGGGAGA
6. TCCCAACCAGTAATGGAGA
7. TCCCTTGTAGTCCGGGAGA
8. TCCCTTTCAGTGTTAGAGA

1: 0.168; 2: 0.395; 3: 0.225; 4: 0.261; 5: 0.319; 6: 0.713; 7: 0.387; 8: 0.459
